- Test system: 556581-035-R-J1-PDC complex spheroid growth
- Assay protocol: Anticancer human tumor 556581-035-R-J1-PDC patient-derived ovarian carcinoma cell line growth inhibition [Asc]
- Experimental parameters: second compound 1 µM; first compound 0.316 µM; hits give low values
Measure: viability, T/C (%)

Compound: O=C(c1cc(Cc2n[nH]c(=O)c3ccccc23)ccc1F)N1CCN(C(=O)C2CC2)CC1 + Cc1c(S(C)(=O)=O)c(-c2cc(F)cc(N3CCN(c4ccc(NS(=O)(=O)c5ccc(NC(CCN6CCC(C(=O)OCCCP(=O)(O)O)CC6)CSc6ccccc6)c(S(=O)(=O)C(F)(F)F)c5)cc4)CC3)c2)c(-c2ccc(Cl)cc2)n1C(C)C
Recorded number: 73.4
--
Compound: COc1c(OCCCN2CCOCC2)ccc2c3n(c(=NC(=O)c4cnc(N)nc4)nc12)CCN3 + CNC(C)C(=O)NC1CN(S(=O)(=O)c2cccc(S(=O)(=O)N3CCC4CCC(C(=O)NC(c5ccccc5)c5ccccc5)N4C(=O)C(NC(=O)C(C)NC)C3)c2)CCC2CCC(C(=O)NC(c3ccccc3)c3ccccc3)N2C1=O
Recorded number: 14.9
--
Compound: C=CC(=O)N1CCN(c2nc(=O)n(-c3c(C)ccnc3C(C)C)c3nc(-c4c(O)cccc4F)c(F)cc23)C(C)C1 (stereo not drawn) + CNC(C)C(=O)NC1CN(S(=O)(=O)c2cccc(S(=O)(=O)N3CCC4CCC(C(=O)NC(c5ccccc5)c5ccccc5)N4C(=O)C(NC(=O)C(C)NC)C3)c2)CCC2CCC(C(=O)NC(c3ccccc3)c3ccccc3)N2C1=O
Recorded number: 86.3

----------
- Test system: 556581-035-R-J1-PDC complex spheroid growth
- Assay protocol: Anticancer human tumor 556581-035-R-J1-PDC cell line growth inhibition [Asc];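 further: spheroids exposed to agents for 7 days before viability read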
- Experimental parameters: second compound 0.0949 µM; first compound 3.16 µM; hits give low values
Listed molecules paired with reported viability, T/C

Molecule: O=C(c1cc(Cc2n[nH]c(=O)c3ccccc23)ccc1F)N1CCN(C(=O)C2CC2)CC1 + CCN1C(C(=O)NC23CCC(C(=O)O)(CC2)CC3)C(c2cccc(Cl)c2F)C2(C(=O)Nc3cc(Cl)ccc32)C12CCCCC2
System under test: 556581-035-R-J1-PDC complex spheroid growth
viability, T/C / %: 87.9
//
Molecule: C=CC(=O)N1CCN(c2nc(=O)n(-c3c(C)ccnc3C(C)C)c3nc(-c4c(O)cccc4F)c(F)cc23)C(C)C1 (centres undefined) + CCN1C(C(=O)NC23CCC(C(=O)O)(CC2)CC3)C(c2cccc(Cl)c2F)C2(C(=O)Nc3cc(Cl)ccc32)C12CCCCC2
System under test: 556581-035-R-J1-PDC complex spheroid growth
viability, T/C / %: 117
//
Molecule: C#Cc1c(F)ccc2cc(O)cc(-c3ncc4c(N5CC6CCC(C5)N6)nc(OCC56CCCN5CC(F)C6)nc4c3F)c12 (centres undefined) + CCN1C(C(=O)NC23CCC(C(=O)O)(CC2)CC3)C(c2cccc(Cl)c2F)C2(C(=O)Nc3cc(Cl)ccc32)C12CCCCC2
System under test: 556581-035-R-J1-PDC complex spheroid growth
viability, T/C / %: 91
//
Molecule: C=C(F)C(=O)N1CCN(c2nc(OCC3CCCN3C)nc3c2CCN(c2cccc4cccc(Cl)c24)C3)CC1CC#N (centres undefined) + CCN1C(C(=O)NC23CCC(C(=O)O)(CC2)CC3)C(c2cccc(Cl)c2F)C2(C(=O)Nc3cc(Cl)ccc32)C12CCCCC2
System under test: 556581-035-R-J1-PDC complex spheroid growth
viability, T/C / %: 62.5
